biological target: human Edg-1 (S1P1) (Homo sapiens); construct: expressed in transfected cells; host or cells: HEK-293; assay: S1P1 binding assay: inhibition of [33P]-S1P binding to membrane fraction of HEK-293 cells transferred with the human Edg-1 (S1P1) gene; conditions: test compound at 10 μM; inhibition of [33P]-S1P binding to the membrane fraction of HEK-293 cells expressing human Edg-1 (S1P1)
Sequence (P21453 whole entry): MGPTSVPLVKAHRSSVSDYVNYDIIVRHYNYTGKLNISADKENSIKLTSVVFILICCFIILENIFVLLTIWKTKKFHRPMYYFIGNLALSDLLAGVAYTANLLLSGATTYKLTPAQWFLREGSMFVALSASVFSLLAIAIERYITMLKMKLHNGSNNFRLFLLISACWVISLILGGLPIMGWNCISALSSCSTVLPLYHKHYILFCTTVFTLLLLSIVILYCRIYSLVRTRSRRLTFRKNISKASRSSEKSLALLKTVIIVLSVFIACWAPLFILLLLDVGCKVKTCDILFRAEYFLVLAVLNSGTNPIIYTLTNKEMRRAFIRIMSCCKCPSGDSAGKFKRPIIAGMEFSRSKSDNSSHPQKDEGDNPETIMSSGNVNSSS
MEASURED PROPERTY: inhibition at 10 µM (%)
Quick note: give the figure in %, leave out the unit.

The molecule CCn1c(Oc2cccc(O)c2)nnc1[C@@H](C)NS(=O)(=O)c1ccc(Cl)c(Cl)c1 showed inhibition at 10 µM equal to 94.5

Please fill in: inhibition at 10 µM reported for CCn1c(Oc2ccc(F)cc2)nnc1[C@@H](C)NS(=O)(=O)c1ccc(OC(F)(F)F)cc1 = 87.9

Data point: CCn1c(Oc2ccc(F)cc2)nnc1[C@@H](C)NS(=O)(=O)c1c(C)cc(Cl)cc1Cl ; inhibition at 10 µM = 86.4

In plain terms, CCn1c(Oc2ccc3cc[nH]c3c2)nnc1[C@@H](C)NS(=O)(=O)c1cc(C)ccc1C has a documented inhibition at 10 µM of 94.3

Per the record, CCn1c(Oc2ccc(F)cc2)nnc1[C@@H](C)NS(=O)(=O)c1ccc2c(c1)CN(C(=O)C(F)(F)F)CC2 has inhibition at 10 µM of 80.7

response.value for C=Cc1ccc(S(=O)(=O)N[C@H](C)c2nnc(Oc3ccc4cc[nH]c4c3)n2CC)cc1 (field: inhibition at 10 µM) = 96.2

// CCn1c(Oc2ccc3cc[nH]c3c2)nnc1[C@@H](C)NS(=O)(=O)c1ccc(I)cc1 : inhibition at 10 µM value = 98.8

Documented inhibition at 10 µM of CCn1c(Oc2cc(C)cc(C)n2)nnc1[C@@H](C)NS(=O)(=O)c1ccc(Cl)c(Cl)c1 : 92.4

Reported inhibition at 10 µM ( CCn1c(Oc2cccc(-n3cnnc3)c2)nnc1[C@@H](C)NS(=O)(=O)c1ccc(Cl)c(Cl)c1 ) = 90.3

For this molecule ( CCn1c(Oc2ccc(F)cc2)nnc1[C@@H](C)NS(=O)(=O)c1cccc(Cl)c1C ), measured inhibition at 10 µM is 102

For record CCn1c(Oc2cccc(NS(C)(=O)=O)c2)nnc1[C@@H](C)NS(=O)(=O)c1ccc2ccccc2c1 the listed inhibition at 10 µM is 103

Kindly note the recorded inhibition at 10 µM for CCn1c(Oc2ccc(F)cc2)nnc1[C@@H](C)NS(=O)(=O)c1ccc(C)c(F)c1 , which is 104

====

Can you tell me pIC50 for the items I'm about to list?
target: human Edg-1 (S1P1) (Homo sapiens); construct: expressed in transfected cells; host or cells: HEK-293; experiment: S1P1 binding assay: inhibition of [33P]-S1P binding to membrane fraction of HEK-293 cells transferred with the human Edg-1 (S1P1) gene; settings: [33P]-S1P 0.1 nM, human Edg-1 (S1P1) HEK-293 membrane fraction, 1 h at 30° C.; read-out: IC50 (concentration at which binding in the absence of the test compound was inhibited by 50%)
pIC50: −log10 of the molar value.

Just so you know, measured pIC50 for CCn1c(Oc2cccc(N3CCN(C)CC3)c2)nnc1[C@@H](C)NS(=O)(=O)c1cc(F)cc(Cl)c1C came out at ≥ 7.46

The recorded pIC50 for CCn1c(Oc2cccc(N3CCNCC3)c2)nnc1[C@@H](C)NS(=O)(=O)c1ccc(Cl)c(Cl)c1 is ≥ 8.00

The compound CCC(NS(=O)(=O)c1ccc2c(Cl)cccc2c1)c1nnc(Oc2cccc(N3CCN(C)CC3)c2)n1CC (stereo not shown) showed pIC50 equal to ≥ 8.00

Lab book: pIC50 of CCn1c(Oc2cccc(N3CCC4(CC3)OCCO4)c2)nnc1[C@@H](C)NS(=O)(=O)c1ccc(Cl)c(Cl)c1 noted as ≥ 8.00

Form field pIC50, entry CCN(CC)c1cccc(Oc2nnc([C@@H](C)NS(=O)(=O)c3ccc(Cl)c(Cl)c3)n2CC)c1 : ≥ 8.00

Reported pIC50 ( CCCCOc1ccc(Oc2nnc([C@@H](C)NS(=O)(=O)c3ccc(Cl)c(Cl)c3)n2CC)cc1 ) = ≥ 7.46

Lab note: CCCc1ccc(Oc2nnc([C@@H](C)NS(=O)(=O)c3ccc(Cl)c(Cl)c3)n2CC)cc1 gave pIC50 of ≥ 7.46

The reported value for CCn1c(Oc2cccc(N3CCC(O)CC3)c2)nnc1[C@@H](C)NS(=O)(=O)c1ccc(Cl)c(Cl)c1 in terms of pIC50 is ≥ 8.00

Record CCn1c(Oc2ccc(F)c(C)c2)nnc1[C@@H](C)NS(=O)(=O)c1ccc(Cl)c(Cl)c1 , field pIC50: ≥ 7.46

Looking up CCn1c(Oc2cccc(OC)c2)nnc1[C@@H](C)NS(=O)(=O)c1ccc(Cl)c(Cl)c1 , I see its pIC50 listed as ≥ 7.46

GET /value?item= CCn1c(Oc2cccc(NS(=O)(=O)N(C)C)c2)nnc1[C@@H](C)NS(=O)(=O)c1ccc(Cl)c(Cl)c1 &field=pIC50 returns ≥ 7.46

Just so you know, measured pIC50 for CCn1c(Oc2ccc3cc[nH]c3c2)nnc1[C@@H](C)NS(=O)(=O)c1ccc(C)c(C)c1 came out at 7.70

Item: CCn1c(Oc2cccc(N(CCOC)CCOC)c2)nnc1[C@@H](C)NS(=O)(=O)c1ccc(Cl)c(Cl)c1 | pIC50: 7.73

Short answer for CCn1c(Oc2cccc(N3CCN(CCN(C)C)CC3)c2)nnc1[C@@H](C)NS(=O)(=O)c1ccc(Cl)c(Cl)c1 : pIC50 was 8.09

In plain terms, CCn1c(Oc2cccc(N(C(C)C)C(C)C)c2)nnc1[C@@H](C)NS(=O)(=O)c1ccc(Cl)c(Cl)c1 has a documented pIC50 of ≥ 8.00

pIC50 for CCn1c(Oc2cccc(N3CCN(C)CC3)c2)nnc1[C@@H](C)NS(=O)(=O)c1ccc(Cl)c(Cl)c1Cl is 8.14

The compound identified as COc1ccc(Oc2nnc([C@@H](C)NS(=O)(=O)c3ccc(Cl)c(Cl)c3)n2C2CC2)cc1 registered its pIC50 at 7.93

Sure, the documented pIC50 for CCn1c(Oc2ccc(Oc3ccccc3)cc2)nnc1[C@@H](C)NS(=O)(=O)c1ccc(Cl)c(Cl)c1 is 7.85

Data point: CCn1c(Oc2cccc(N3CCN(C(C)=O)CC3)c2)nnc1[C@@H](C)NS(=O)(=O)c1ccc2c(Cl)cccc2c1 ; pIC50 = 8.64

====

For each entry below, report its melting point value.

Lab book: melting point of CCn1c(Oc2cccc(N3CCN(C)CC3)c2)nnc1[C@@H](C)NS(=O)(=O)c1cc2ccccc2s1 [Compound 144] noted as 187 to 188 °C

Sample CCn1c(Oc2cccc(-n3cnnc3)c2)nnc1[C@@H](C)NS(=O)(=O)c1ccc(Cl)c(Cl)c1 [Compound 89] ; melting point observed: 101 to 103 °C

Measured melting point, CCn1c(Oc2cccc(NC(=O)N3CCOCC3)c2)nnc1[C@@H](C)NS(=O)(=O)c1ccc(Cl)c(Cl)c1 [Compound 98] : 143 to 144 °C

Query CCn1c(Oc2ccccc2)nnc1[C@@H](C)NS(=O)(=O)c1ccc(Cl)c(Cl)c1 [Compound 7] yields melting point of 159.5 to 161.5 °C

The value of melting point measured for the compound CCn1c(Oc2cccc(N3CCOCC3)c2)nnc1[C@@H](C)NS(=O)(=O)c1ccc(Cl)c(Cl)c1 [Compound 34] turned out to be 192.5 to 195.5 °C

Reported melting point ( CCn1c(Oc2ccc3c(c2)NC(=O)CC3)nnc1[C@@H](C)NS(=O)(=O)c1ccc(Cl)c(Cl)c1 [Compound 74] ) = 218.5 to 227 °C

Record CCn1c(Oc2cccc(N3CCNCC3)c2)nnc1[C@@H](C)NS(=O)(=O)c1ccc2c(Cl)cccc2c1 [Compound 688] . Reported melting point: 192 to 193 °C

Reported melting point ( CCn1c(Oc2cc(C)cc(C)n2)nnc1[C@@H](C)NS(=O)(=O)c1ccc(Cl)c(Cl)c1 [Compound 95] ) = 205 to 208.5 °C

Briefly, melting point measured for CCn1c(Oc2ccc3cc[nH]c3c2)nnc1[C@@H](C)NS(=O)(=O)c1ccc2ccccc2c1 [Compound 130] : 107 to 114 °C

Entry CCn1c(Oc2ccc(N3CCOCC3)cc2)nnc1[C@@H](C)NS(=O)(=O)c1ccc(Cl)c(Cl)c1 [Compound 47] , melting point reported as 191 to 192 °C

Lab book: melting point of CCn1c(Oc2ccc(Oc3ccccc3)cc2)nnc1[C@@H](C)NS(=O)(=O)c1ccc(Cl)c(Cl)c1 [Compound 22] noted as 163 to 167.5 °C

Value of measured melting point for the entry CCn1c(Oc2ccc(-c3ccccc3)cc2)nnc1[C@@H](C)NS(=O)(=O)c1ccc(Cl)c(Cl)c1 [Compound 29] : 177 to 178.5 °C

Looking up CCN(CC)c1cccc(Oc2nnc([C@@H](C)NS(=O)(=O)c3ccc(Cl)c(Cl)c3)n2CC)c1 [Compound 70] , I found its melting point recorded as 144 to 146 °C

Looking up CCn1c(Oc2ccc(F)c(Cl)c2)nnc1[C@@H](C)NS(=O)(=O)c1ccc(Cl)c(Cl)c1 [Compound 31] , I see its melting point listed as 143 to 146 °C

Please fill in: melting point reported for CCn1c(Oc2cccc(N(C)CCN(C)C)c2)nnc1[C@@H](C)NS(=O)(=O)c1ccc(Cl)c(Cl)c1 [Compound 105] = 121 to 123 °C

The reported numbers originate from patent US8022091B2.
